Entry source: ChEMBL document CHEMBL1126145

molecular target: Muscarinic acetylcholine receptor; assay: Inhibition of [3H]N-methylscopolamine binding to muscarinic acetylcholine receptor of rat cerebral cortex.; type: tissue-based
Quantity kind: Ki (nM)

{"Compound": "O=C1CCCN1C(C#CCN1CCCC1)c1ccccc1 (stereo not drawn)", "Quantity kind": "Ki", "Recorded measurement": 110}

A = O=C1CCCN1CC#CCN1CCC(c2ccccc2)C1 (stereo not drawn)
B = O=C1CC(c2ccccc2)CN1CC#CCN1CCCC1 (stereo not drawn)
For the pair A and B , which member has the lower Ki number? Lab note: record the label of whichever item you select.
A
(A: 2400 nM, B: 5770 nM)

---

biological target: Muscarinic acetylcholine receptor; assay: Determination of dissociation constant from antimuscarinic activity on isolated guinea pig ileum.; format: tissue-based, Cavia porcellus
Quantity kind: Kd (µM)

// below: answered molecules
{"Molecule": "O=C1CCCN1C(C#CCN1CCCC1)c1ccccc1 (stereo unspecified)", "Target under test": "Muscarinic acetylcholine receptor", "Quantity kind": "Kd", "Result unit": "µM", "Recorded measurement": 0.2}
{"Molecule": "O=C1C(c2ccccc2)CCN1CC#CCN1CCCC1 (stereo unspecified)", "Target under test": "Muscarinic acetylcholine receptor", "Quantity kind": "Kd", "Result unit": "µM", "Recorded measurement": 11.21}
{"Molecule": "CN(C(=O)C(F)(F)F)C(C#CCN1CCCC1)c1ccccc1 (stereo unspecified)", "Target under test": "Muscarinic acetylcholine receptor", "Quantity kind": "Kd", "Result unit": "µM", "Recorded measurement": 0.5}
{"Molecule": "O=C1CCCN1CC#CCN1CCC(c2ccccc2)C1 (stereo unspecified)", "Target under test": "Muscarinic acetylcholine receptor", "Quantity kind": "Kd", "Result unit": "µM", "Recorded measurement": 8.1}
{"Molecule": "O=C1CCC(c2ccccc2)N1CC#CCN1CCCC1 (stereo unspecified)", "Target under test": "Muscarinic acetylcholine receptor", "Quantity kind": "Kd", "Result unit": "µM", "Recorded measurement": 0.85}
{"Molecule": "CC(C#CCN1CCCC1)N1CCCC1=O (stereo unspecified)", "Target under test": "Muscarinic acetylcholine receptor", "Quantity kind": "Kd", "Result unit": "µM", "Recorded measurement": 0.091}

A = O=C1CC(c2ccccc2)CN1CC#CCN1CCCC1 (stereo unspecified)
B = CC(=O)N(C)C(C#CCN1CCCC1)c1ccccc1 (stereo unspecified)
In terms of reported Kd, does A or B have the smaller number? // respond with label for picked entry
B

---

target: Muscarinic acetylcholine receptor; assay: Inhibition of [3H]N-methylscopolamine binding to muscarinic acetylcholine receptor of rat cerebral cortex.; assay type: tissue-based
Quantity kind: Ki (nM)

Example compounds with recorded Ki:
{"Compound": "O=C1CCC(=O)N1C(C#CCN1CCCC1)c1ccccc1 (configuration not stated)", "Recorded measurement": 120}
{"Compound": "O=C1C(c2ccccc2)CCN1CC#CCN1CCCC1 (configuration not stated)", "Recorded measurement": 6910}
{"Compound": "CC(=O)N(CC#CCN1CCCC1)Cc1ccccc1", "Recorded measurement": 1290}
{"Compound": "CC(=O)N(C)C(C#CCN1CCCC1)c1ccccc1 (configuration not stated)", "Recorded measurement": 310}
{"Compound": "CN(CC#CCN1CCCC1)C(=O)Cc1ccccc1", "Recorded measurement": 5200}

P = CN(C(=O)C(F)(F)F)C(C#CCN1CCCC1)c1ccccc1 (configuration not stated)
Q = O=C1CCC(c2ccccc2)N1CC#CCN1CCCC1 (configuration not stated)
Returns: the argument ( P or Q ) having the larger Ki. Mark your answer with the label of the selected entry.
Q
